test system: BDF1 mice, P388 leukemia ip, median survival T/C; assay: NCI In Vivo Anticancer Drug Screen. Data for tumor model P388 Leukemia (intraperitoneal) in B6D2F1 (BDF1) mice; settings: endpoint: median survival time; dose: 3.12 mg/kg/injection; schedule: Q01DX009 (ip); vehicle: saline; higher = longer survival
Inconclusive results and toxic doses are left out.
Assign T/C to each entry below.

Just so you know, measured T/C for "COc1cc(N)ccc1C(=O)O" came out at 115 % of control

Just so you know, measured T/C for "NC1CC[N-]CC1.NC1CC[N-]CC1.[Cl][Pt+2]([Cl])([Cl])[Cl]" came out at 109 % of control

Just so you know, measured T/C for "CN(C)CCCc1c2ccccc2nc2ccc(Cl)cc12" came out at 90 % of control

Just so you know, measured T/C for "O=C1C=CC(=O)N1CN1CCOCC1" came out at 120 % of control

====

test system: BDF1 mice, P388 leukemia ip, median survival T/C; experiment: NCI In Vivo Anticancer Drug Screen. Data for tumor model P388 Leukemia (intraperitoneal) in B6D2F1 (BDF1) mice; conditions: endpoint: median survival time; dose: 100.0 mg/kg/injection; schedule: Q01DX005 (ip); vehicle: saline with Tween-80; higher = longer survival
Toxic doses and inconclusive results are not listed.
measured-metric: T/C

The recorded T/C with BDF1 mice, P388 leukemia ip, median survival T/C for "O=C1c2ccccc2C(=O)N1CN1CCN(c2ccc(F)cc2)CC1" was 94 % of control

The recorded T/C with BDF1 mice, P388 leukemia ip, median survival T/C for "Cc1cc(S(=O)(=O)c2ccc(Cl)cc2)nc(S(=O)(=O)c2ccc(Cl)cc2)c1C#N" was 110 % of control

The recorded T/C with BDF1 mice, P388 leukemia ip, median survival T/C for CCOC(=O)N1CCc2cc(OC)c(OC)cc2C1Cc1ccc(OC)c(OC)c1 (stereo unspecified) was 105 % of control

The recorded T/C with BDF1 mice, P388 leukemia ip, median survival T/C for CC(=O)NC(CCCCNC(=O)OCc1ccccc1)C(=O)O (stereo unspecified) was 93 % of control

The recorded T/C with BDF1 mice, P388 leukemia ip, median survival T/C for CCOC(=O)C1Cc2ccccc2OC1=O (stereo unspecified) was 100 % of control

The recorded T/C with BDF1 mice, P388 leukemia ip, median survival T/C for "NC(=O)c1c(Cl)nc(-c2cccc([N+](=O)[O-])c2)c([N+](=O)[O-])c1C(F)(F)F" was 115 % of control

====

test system: BDF1 mice, P388 leukemia ip, median survival T/C; assay: NCI In Vivo Anticancer Drug Screen. Data for tumor model P388 Leukemia (intraperitoneal) in B6D2F1 (BDF1) mice; conditions: endpoint: median survival time; dose: 200.0 mg/kg/injection; schedule: Q01DX009 (ip); vehicle: Klucel (hydroxypropylcellulose) (HPC); higher = longer survival
Toxic doses and inconclusive results are not listed.
measured-metric: T/C

Just so you know, measured T/C for O=C1c2ccccc2C(=O)C1(Cl)C(Cl)c1ccc([N+](=O)[O-])cc1 (stereo not drawn) came out at 90 % of control

Just so you know, measured T/C for Cc1ccc(C(CCC#N)OC(C)C)cc1 (stereo not drawn) came out at 109 % of control

Just so you know, measured T/C for "Cc1cc(=O)c2cccc(C)c2[nH]1" came out at 92 % of control

Just so you know, measured T/C for "OCc1cc(Cl)ccc1O" came out at 110 % of control

Just so you know, measured T/C for "COc1ccc2nc(NCN3C(=O)c4ccccc4C3=O)sc2c1" came out at 104 % of control

Just so you know, measured T/C for "O=C1CCCc2ccccc2N1" came out at 91 % of control

Just so you know, measured T/C for "C=Cc1c(C)c(O)cc2c1CC[C@@H]1C(C)(C)[C@H](O)[C@H](O)C[C@@]21C" came out at 100 % of control

Just so you know, measured T/C for "COc1ccc(OC)c([N+](=O)[O-])c1" came out at 95 % of control

Just so you know, measured T/C for CCCCCCCCCCCCCCCCCS(=O)S(=O)O (stereo not drawn) came out at 119 % of control

Just so you know, measured T/C for "O=C(c1ccccc1)c1c2ccccc2c(C(=O)c2ccccc2)c2ccccc12" came out at 100 % of control

Just so you know, measured T/C for "S=C(NC1CCCCC1)NC1CCCCC1" came out at 100 % of control

Just so you know, measured T/C for S=C(Nc1ccc(Cl)c(Cl)c1)N1c2ccccc2-n2cccc2C1c1cccnc1 (stereo not drawn) came out at 117 % of control

Just so you know, measured T/C for "c1ccc(C/C(N=Nc2ccccc2)=N\Nc2ccccc2)cc1" came out at 100 % of control

====

Assign T/C to each entry below.
Tested on: BDF1 mice, P388 leukemia ip, median survival T/C
Assay: NCI In Vivo Anticancer Drug Screen. Data for tumor model P388 Leukemia (intraperitoneal) in B6D2F1 (BDF1) mice
Details: endpoint: median survival time; dose: 50.0 mg/kg/injection; schedule: Q01DX009 (ip); vehicle: saline with Tween-80; higher = longer survival
Description: The antitumor activity of compounds was measured in mice bearing transplantable tumors. Survival or tumor size were measured and the results are expressed as the measurement made in the treated group (T) divided by the measurement made in the vehicle treated control group (C). The tumor model used in this assay is P388 Leukemia (intraperitoneal) in B6D2F1 (BDF1) mice
Inconclusive results and toxic doses are left out.

Just so you know, measured T/C for "Nc1c2ccccc2cc2ccccc12" came out at 108 % of control

Just so you know, measured T/C for CC(C)CCCC(C)C1CCC2C3CC=C4CC(S[As](C)C)CCC4(C)C3CCC12C (configuration not stated) came out at 98 % of control

Just so you know, measured T/C for CC(=O)O.CC(=O)O.[Co+2].[NH-]C(CCC(N)=O)C(=O)O.[NH-]C(CCC(N)=O)C(=O)O (configuration not stated) came out at 98 % of control

Just so you know, measured T/C for "CN(C)C(=S)NCc1ccccc1" came out at 109 % of control

Just so you know, measured T/C for "O=C(/C=C/c1ccc(OCc2ccccc2)cc1)c1ccc(Br)cc1" came out at 91 % of control

Just so you know, measured T/C for "CC(C)CCNc1ncnc2c1cnn2C" came out at 100 % of control

Just so you know, measured T/C for "Cc1ccc(S(=O)(=O)/N=C/NN(C)C)cc1" came out at 97 % of control

Just so you know, measured T/C for "CN(C)c1oc2ccc3ccccc3c2c(=O)c1C#N" came out at 95 % of control

Just so you know, measured T/C for "CC(C)NC(=O)N(C(=O)C(F)(F)F)C(C)C" came out at 105 % of control

Just so you know, measured T/C for "O=Cc1ccc(C(Cl)(Cl)Cl)cc1" came out at 92 % of control

Just so you know, measured T/C for "O=c1[nH]cnc2[nH]ccc12" came out at 99 % of control

Just so you know, measured T/C for CN(C)c1ccc(C2N(Cc3ccccc3)CCC3CCCCN32)cc1 (configuration not stated) came out at 99 % of control

====

system: BDF1 mice, P388 leukemia ip, median survival T/C; experiment: NCI In Vivo Anticancer Drug Screen. Data for tumor model P388 Leukemia (intraperitoneal) in B6D2F1 (BDF1) mice; settings: endpoint: median survival time; dose: 200.0 mg/kg/injection; schedule: Q01DX009 (ip); vehicle: Klucel (hydroxypropylcellulose) (HPC); higher = longer survival
Inconclusive results and toxic doses are left out.
measured-metric: T/C

Just so you know, measured T/C for CCOC(=O)C(C#N)(CC)C1=CCCCC1 (stereo not drawn) came out at 100 % of control

Just so you know, measured T/C for "C(=N\Nc1nc2ccccc2o1)/c1ccncc1" came out at 109 % of control

Just so you know, measured T/C for "O=C(N/N=C/c1ccccc1Cl)c1ccccc1" came out at 118 % of control

Just so you know, measured T/C for "COc1ccc(/C=C/C(=O)c2ccccc2)cc1OC" came out at 100 % of control

Just so you know, measured T/C for "O=[N+]([O-])c1ccc(OCc2ccc(S(=O)(=O)F)c(Cl)c2)c(Cl)c1" came out at 100 % of control

Just so you know, measured T/C for "O=C(O)COc1ccccc1OCC(=O)O" came out at 100 % of control

Just so you know, measured T/C for "Cc1nn(C)c2ccc([N+](=O)[O-])cc12" came out at 104 % of control

Just so you know, measured T/C for CC1(C)CC(=O)C2OC2(C)C1 (stereo not drawn) came out at 90 % of control

====

Assign T/C to each entry below.
tested on: BDF1 mice, P388 leukemia ip, median survival T/C; assay: NCI In Vivo Anticancer Drug Screen. Data for tumor model P388 Leukemia (intraperitoneal) in B6D2F1 (BDF1) mice; settings: endpoint: median survival time; dose: 200.0 mg/kg/injection; schedule: Q04DX003 (ip); vehicle: Klucel (hydroxypropylcellulose) (HPC); higher = longer survival
Inconclusive results and toxic doses are left out. Residues, ends and D or L forms follow the SMILES beside them. *: point of attachment. Cbz = O=C(OCc1ccccc1)*; Bn = c1ccc(C*)cc1; βAla = NCCC(=O)O

The recorded T/C with BDF1 mice, P388 leukemia ip, median survival T/C for CCOC(=O)C(C#N)(CC)C1=CCCCC1 (centres undefined) was 100 % of control

The recorded T/C with BDF1 mice, P388 leukemia ip, median survival T/C for COC(=O)C(CSCc1ccccc1)NC(=O)C(CSCc1ccccc1)NC(=O)CCNC(=O)OCc1ccccc1 (centres undefined) ({Cbz-βAla}-Cys(Bn)-Cys(Bn)-OMe; configuration not given here) was 93 % of control

The recorded T/C with BDF1 mice, P388 leukemia ip, median survival T/C for Cc1noc(C)c1CC1(Cc2c(C)noc2C)C(=O)CCC2(C)CCCC=C21 (centres undefined) was 91 % of control

The recorded T/C with BDF1 mice, P388 leukemia ip, median survival T/C for CC1(C)C2CC3C(C(=O)O)CCCC3(C2)C1Br (centres undefined) was 100 % of control

The recorded T/C with BDF1 mice, P388 leukemia ip, median survival T/C for "CCCCN(C)N=Nc1ccccc1C(N)=O" was 109 % of control

The recorded T/C with BDF1 mice, P388 leukemia ip, median survival T/C for "CC(=O)O[C@]1(C(C)=O)CC[C@H]2[C@@H]3C=C(Cl)C4=CC(=O)[C@@H]5C[C@@H]5[C@]4(C)[C@H]3CC[C@@]21C" was 108 % of control

The recorded T/C with BDF1 mice, P388 leukemia ip, median survival T/C for "CN(C)c1ccc(C(C#N)(c2ccc(N(C)C)cc2)c2ccc(N(C)C)cc2)cc1" was 95 % of control

The recorded T/C with BDF1 mice, P388 leukemia ip, median survival T/C for "O=Cc1[nH]c(=S)[nH]c(=O)c1Cc1ccccc1Cl" was 100 % of control

The recorded T/C with BDF1 mice, P388 leukemia ip, median survival T/C for O=C1NC(=O)C2C3C(C(O)(c4ccccc4)c4ccccn4)=CC(/C3=C(\c3ccccc3)c3ccccn3)C12 (centres undefined) was 100 % of control
